Tested on: PC-3 prostate
Test: NCI tumour cell line growth inhibition, 48 h
MEASURE NAME: TGI

> print(dat)
                                   compound    measured.on  measure.name  observed
1         COc1ccc(OC)c2c(=S)c3ccccc3[nH]c12  PC-3 prostate           TGI  > 100 µM
2  Nc1nc(-c2cccc([N+](=O)[O-])c2)cc(-c2cc(-c3cccc([N+](=O)[O-])c3)nc(N)n2)n1  PC-3 prostate           TGI  > 100 µM
3           CCc1nc2ccc(C(F)(F)F)cc2[nH]c1=O  PC-3 prostate           TGI  > 100 µM
4  NC(=O)CC(N=C1C(=O)OC(C(O)CO)C1=NC(CC(N)=O)C(=O)O)C(=O)O (stereo not drawn)  PC-3 prostate           TGI  > 100 µM
5  COc1ccc2cc(C(=O)NCCCNC(=O)c3ccc4cc(OC)ccc4c3)ccc2c1  PC-3 prostate           TGI  > 100 µM

# CS(=O)(=O)OCCN(CCOS(C)(=O)=O)c1ccc(C=O)cc1 with PC-3 prostate: TGI is 86 µM

# CCCN(CCSSCCNc1nc(N(C)O)nc(N(C)O)n1)c1nc(N(C)O)nc(N(C)O)n1 with PC-3 prostate: TGI is > 100 µM

# Nn1c(Cc2ccccc2)n[nH]c1=O with PC-3 prostate: TGI is > 100 µM

# Clc1nc(Cl)c(CBr)c(Cl)n1 with PC-3 prostate: TGI is 17.7 µM

# C/C(=N\N=C(N)N)C(CN(C)C)C(c1ccccc1)c1c(O)c2ccccc2oc1=O (stereo not drawn) with PC-3 prostate: TGI is > 100 µM

# COc1ccc(Oc2nc(C#CC(C)(C)O)nc(Oc3ccc(OC)cc3)n2)cc1 with PC-3 prostate: TGI is 7.69 µM

# CC12CCC(C(Nc3ccccn3)C1=O)C2(C)C (stereo not drawn) with PC-3 prostate: TGI is > 100 µM

# O=[N+]([O-])c1ccc2c(c1)c(S(=O)(=O)O)cc1nonc12 with PC-3 prostate: TGI is > 100 µM

# Cc1ccc(S(=O)(=O)NC(=O)NC(Cc2ccc(O)c(O)c2)C(=O)O)cc1 (stereo not drawn) with PC-3 prostate: TGI is > 100 µM

# N#C/C(=C\c1ccc(Br)cc1)n1nnc2ccccc21 with PC-3 prostate: TGI is 2.3 µM

# C=C1C(=O)O[C@H]2[C@H]1CC/C(COC(=O)c1ccccc1)=C\CC[C@@]1(C)O[C@@H]21 with PC-3 prostate: TGI is 4.34 µM

# Cc1[nH]nc2c1N=C(c1ccccc1Cl)c1cc([N+](=O)[O-])ccc1N2 with PC-3 prostate: TGI is > 25 µM

# COc1ccc(N(/C=C/C(=O)C(F)(F)F)CC(=O)c2ccc(Cl)c(Cl)c2)cc1 with PC-3 prostate: TGI is 28.3 µM

---

Test system: A549 NSCLC
Experiment: NCI tumour cell line growth inhibition, 48 h
TGI reference

Completed entries (count: 3):
> print(dat)
                                   compound  measured.on  measure.name  observed
1          c1ccc(C2=NCCc3cc4c(cc32)OCO4)cc1   A549 NSCLC           TGI  > 100 µM
2  Cc1nc(C(N)=S)sc1C(=O)C/C(=N/N)C(=O)Nc1ccc(Cl)cc1   A549 NSCLC           TGI  > 100 µM
3                  Oc1ccc(O)c(CNc2ccccc2)c1   A549 NSCLC           TGI  > 100 µM

Memo: CC(C)(C)c1ccc(C(C)(C)C)c(N2C(=O)C3ON=C(c4ccc([N+](=O)[O-])cc4)C3C2=O)c1 (centres undefined) , reported TGI: > 25 µM

---

System: A498 renal
Experiment: NCI tumour cell line growth inhibition, 48 h
MEASURE NAME: TGI

> print(dat)
                                   molecule  measure.name  observed
1  CC1(CC2=C(C(=O)NCCO[Si](C)(C)C(C)(C)C)C3(OCCO3)C2=O)OCCO1           TGI  > 100 µM
2  CC(C)Nc1ncc2cc(Oc3ccc(F)cc3F)c(=O)n(C)c2n1           TGI   > 25 µM
3  CC(C)(C)[C@H]1CCC2(OCCO2)[C@](O)(CCCO)C1           TGI  > 100 µM
4  Cc1[nH]nc2c1N=C(c1ccccc1Cl)c1cc([N+](=O)[O-])ccc1N2           TGI   1.62 µM
5  OCC(O)C(O)C(O)/C=N/Nc1nc2ccccc2nc1-c1ccccc1 (centres undefined)           TGI  > 100 µM
6  C=C1C(=O)O[C@H]2[C@H]1CC/C(Cn1cc(-c3cc(C)c(C)cc3C)nn1)=C\CC[C@@]1(C)O[C@@H]21           TGI      4 µM

Memo: c1ccc(N=C2SC3=NCCN3C2=Nc2ccccc2)cc1 , reported TGI: 36.4 µM

Memo: c1ccc(C(CCN2CC3CCC(CC3)C2)c2ccccc2)cc1 , reported TGI: 34.1 µM

Memo: O=C1C(NCCN2CCOCC2)=C(Cl)C(=O)c2ncccc21 , reported TGI: 3.98 µM

---

Test system: SK-MEL-28 melanoma
Test: NCI tumour cell line growth inhibition, 48 h
log10 TGI reference
Plainly stated, the numbers are log10 of TGI given in µM.

Completed entries (count: 4):
> print(dat)
                                   compound  observed
1  N=c1c2c(=S)n(-c3ccccc3)c(=S)n(-c3ccccc3)c2nc(SCCN2CCOCC2)n1-c1ccccc1      0.64
2  CC(=O)OC1Oc2ccccc2-c2oc(=O)c(-c3cc4ccccc4oc3=O)cc21 (centres undefined)      1.94
3  NC1=Nc2cc(OCCCN3Cc4ccccc4C3)c(OCC3CC3)cc2C12CCCC2      0.54
4  C#CCn1c(=O)c(Cl)cn(/C(=C/C(=O)OCC)C(=O)OCC)c1=O      1.59

From here, focus on the item given below.
# CN1CCN(c2ccc(C(=O)Nc3cc(-c4cccc(NS(=O)(=O)c5ccccc5)c4)[nH]n3)cc2)CC1 with SK-MEL-28 melanoma: log10 TGI is 1.43

---

System: MALME-3M melanoma
Assay: NCI tumour cell line growth inhibition, 48 h
MEASURE NAME: TGI

# COc1ccc(-c2c(N)[n+]([O-])c3ccccc3[n+]2[O-])cc1OC with MALME-3M melanoma: TGI is > 100 µM

---

System: SNB-75 CNS
Assay: NCI tumour cell line growth inhibition, 48 h
MET means recorded TGI is 5 µM or above; NOT MET means it is below 5 µM.

> print(dat)
                                    compound  classification
 1  Clc1ccc(Nc2ccnc(NCCCNc3ccnc4cc(Cl)ccc34)n2)cc1         NOT MET
 2        O=C(/C=C/c1ccccc1Cl)c1ccc(Cl)cc1Cl             MET
 3  Cc1ccc(Sc2sc(-c3ccccc3)nc2[P+](c2ccccc2)(c2ccccc2)c2ccccc2)cc1         NOT MET
 4  CCN(CC)CCCC(C)NC(=O)c1ccc2c(c1)C(=O)c1ccccc1C2=O (stereo unspecified)             MET
 5  N=c1c2c(=S)n(-c3ccccc3)c(=S)n(-c3ccccc3)c2nc(SCCN2CCOCC2)n1-c1ccccc1         NOT MET
 6  COC1=C(Br)C(=O)C2=C(C1=O)C1C3=C(C(=O)C=CC3=O)C2c2ccccc21 (stereo unspecified)             MET
 7  CC1(CC2=C(C(=O)NCCO[Si](C)(C)C(C)(C)C)C3(OCCO3)C2=O)OCCO1             MET
 8  O=C(O)C1CCCCC1c1c2ccc(=O)cc-2oc2cc(O)ccc12 (stereo unspecified)             MET
 9  CC(NC(=O)C(N)CC(=O)O)NC(=O)N(C)C(C)(C)C (stereo unspecified)             MET
10  CC/C=C/c1cc2cc[nH]c2c2c1C(C)C[C@@H]2C (stereo partly specified)             MET

For the next question, use this compound.
Please tell me: is the compound O=C(c1ccc(Cl)cc1)c1ccc(OCCSCCCCCCCCCCSCCOc2ccc(C(=O)c3ccc(Cl)cc3)cc2)cc1 at or over 5 µM in terms of TGI? MET

---

System: SNB-75 CNS
Assay: NCI tumour cell line growth inhibition, 48 h
TGI reference

Completed entries (count: 5):
COMPOUND	MEASURED ON	TGI
COc1ccccc1-c1cc(=O)c2ccc(OC)c(OC)c2o1	SNB-75 CNS	> 100 µM
Clc1c(C(Cl)(Cl)Cl)nsc1N1CCCCC1	SNB-75 CNS	81.8 µM
CS(=O)(=O)OCCCOS(C)(=O)=O	SNB-75 CNS	> 100 µM
COc1cc(OC)c(C(=O)/C=C/c2cccc(OC(C)=O)c2)cc1CC=C(C)C	SNB-75 CNS	11.8 µM
COC(=O)c1cc(C(=CCC[C@H]2CC[C@@]3(C)C(CCC4C3CC[C@@]3(C)C4CC[C@@H]3C(C)CCCC(C)C)C2)c2cc(Cl)c(OC(=O)c3ccccc3)c(C(=O)OC)c2)cc(Cl)c1OC(=O)c1ccccc1 (stereo partly specified)	SNB-75 CNS	> 10 µM

From here, focus on the item given below.
Memo: COC(=O)C1C(OCc2ccccc2)C2CCC1(OC)C=C2C (stereo unspecified) , reported TGI: > 100 µM
